Kindly state Euclidean distance for each of the entries shown.
Tested on: HEPG2
METHOD SUMMARY: Euclidean distance of Cell Painting phenotypic profile (signed KS, 77 features) to DMSO centroid (dimensionless distance); higher = stronger phenotypic change vs DMSO (phenoactivity)
TEST PARAMETERS: 48 h; 5 or 10 uM (library dependent)
Counter-ions that a name gives are not always drawn.
Could you keep your reply to the number by itself?

INPUT: If you can, please state the reported Euclidean distance value of COc1ccc(C(=O)N2CCCC2=O)cc1 .
OUTPUT: 0.635

INPUT: If you can, please state the reported Euclidean distance value of CC[C@H]1[C@@H]2C[C@H]3[C@@H]4N(C)c5ccccc5[C@]45C[C@@H]([C@@H]2[C@H]5O)N3[C@@H]1O .
OUTPUT: 0.486

INPUT: If you can, please state the reported Euclidean distance value of CN1C[C@H](C(=O)N[C@]2(C)O[C@@]3(O)[C@@H]4CCCN4C(=O)[C@H](Cc4ccccc4)N3C2=O)C[C@@H]2c3cccc4[nH]cc(c34)C[C@H]21 [Dihydroergotamine Mesylate] .
OUTPUT: 1.1

INPUT: If you can, please state the reported Euclidean distance value of Cn1c(CCCC(=O)O)nc2cc(N(CCCl)CCCl)ccc21 .
OUTPUT: 0.64

INPUT: If you can, please state the reported Euclidean distance value of CC(=O)[C@H]1CC[C@H]2[C@@H]3CC[C@H]4C[C@H](O)CC[C@]4(C)[C@H]3CC[C@]12C .
OUTPUT: 0.709

INPUT: If you can, please state the reported Euclidean distance value of Cc1cccc(C(C)c2c[nH]cn2)c1C (stereo not given) [Medetomidine HCl] .
OUTPUT: 0.602

INPUT: If you can, please state the reported Euclidean distance value of CN(C)C(=O)Oc1cccc([N+](C)(C)C)c1 [Neostigmine Bromide] .
OUTPUT: 0.858

INPUT: If you can, please state the reported Euclidean distance value of COCC1(CO)C(=O)C2CCN1CC2 (stereo not given) .
OUTPUT: 2.42

INPUT: If you can, please state the reported Euclidean distance value of C[C@](O)(COc1ccc(C#N)cc1)C(=O)Nc1ccc(C#N)c(C(F)(F)F)c1 .
OUTPUT: 1.24

INPUT: If you can, please state the reported Euclidean distance value of CN(C)Cc1c[nH]c2ccccc12 .
OUTPUT: 0.674

----------
Kindly state Euclidean distance for each of the entries shown.
System: OVCAR4
METHOD SUMMARY: Euclidean distance of Cell Painting phenotypic profile (signed KS, 77 features) to DMSO centroid (dimensionless distance); higher = stronger phenotypic change vs DMSO (phenoactivity)
TEST PARAMETERS: 48 h; 5 or 10 uM (library dependent)
Where a name gives a salt, the structure may show the parent alone.
Could you keep your reply to the number by itself?

INPUT: If you can, please state the reported Euclidean distance value of CCC12C=CCN3CC[C@@]4(c5ccc(OC)cc5N(C)[C@H]4[C@@](O)(C(=O)OC)[C@@H]1OC(C)=O)[C@@H]32 (some centres not stated) .
OUTPUT: 0.946

INPUT: If you can, please state the reported Euclidean distance value of CC(C)C(Br)C(=O)NC(N)=O (configuration not stated) .
OUTPUT: 0.646

INPUT: If you can, please state the reported Euclidean distance value of O=C(Oc1ccc([N+](=O)[O-])cc1)N1CCC(C(O)(c2ccc3c(c2)OCO3)c2ccc3c(c2)OCO3)CC1 .
OUTPUT: 1.12

INPUT: If you can, please state the reported Euclidean distance value of COc1ccc2c3c([nH]c2c1)C(C)=NCC3 .
OUTPUT: 1.37

INPUT: If you can, please state the reported Euclidean distance value of CCCCCCC(=O)O[C@H]1CC[C@H]2[C@@H]3CCC4=CC(=O)CC[C@]4(C)[C@H]3CC[C@]12C [Testosterone Enanthate] .
OUTPUT: 1.49

INPUT: If you can, please state the reported Euclidean distance value of CC(=O)[C@H]1CC[C@H]2[C@@H]3CC[C@H]4C[C@H](O)CC[C@]4(C)[C@H]3CC[C@]12C .
OUTPUT: 1.64

INPUT: If you can, please state the reported Euclidean distance value of COc1cc(C)[nH]c(=O)c1CNC(=O)c1c(C)n([C@H](C)C2CCN(CC(F)(F)F)CC2)c2ccccc12 .
OUTPUT: 0.987

INPUT: If you can, please state the reported Euclidean distance value of CC(=O)OCC1=C(C(=O)O)N2C(=O)[C@@H](N)[C@H]2SC1 .
OUTPUT: 0.832

INPUT: If you can, please state the reported Euclidean distance value of NCCCNCCSP(=O)(O)O .
OUTPUT: 1.31

INPUT: If you can, please state the reported Euclidean distance value of Cn1c(CCCC(=O)O)nc2cc(N(CCCl)CCCl)ccc21 .
OUTPUT: 0.732

INPUT: If you can, please state the reported Euclidean distance value of CCCN1CCO[C@@H]2c3cc(O)ccc3OC[C@H]21 .
OUTPUT: 0.818

INPUT: If you can, please state the reported Euclidean distance value of COc1ccc2c(c1)[nH]c1c(C)nccc12 [Harmine hydrochloride] .
OUTPUT: 1.25

INPUT: If you can, please state the reported Euclidean distance value of CN(C)NC(=O)CCC(=O)O [Daminozide] .
OUTPUT: 1.16

INPUT: If you can, please state the reported Euclidean distance value of CNCC(O)c1ccc(O)cc1 (configuration not stated) [Synephrine HCl] .
OUTPUT: 1.27

INPUT: If you can, please state the reported Euclidean distance value of N=C(N)NN [Aminoguanidine hydrochloride] .
OUTPUT: 0.998

INPUT: If you can, please state the reported Euclidean distance value of N[C@@H](Cc1ccc(N(CCCl)CCCl)cc1)C(=O)O .
OUTPUT: 2.13

INPUT: If you can, please state the reported Euclidean distance value of C#C[C@]1(O)CC[C@H]2[C@@H]3CCC4=CC(=O)CC[C@]4(C)[C@H]3CC[C@@]21C .
OUTPUT: 1.06

----------
Test system: FB
METHOD SUMMARY: Euclidean distance of Cell Painting phenotypic profile (signed KS, 77 features) to DMSO centroid (dimensionless distance); higher = stronger phenotypic change vs DMSO (phenoactivity)
TEST PARAMETERS: 48 h; 5 or 10 uM (library dependent)
Structures can show the parent of a compound that is named as a salt.
Kindly state Euclidean distance for each of the entries shown.
Could you keep your reply to the number by itself?

INPUT: Could you share what Euclidean distance was measured for Cc1cc(C2=NOC(c3cc(Cl)cc(Cl)c3)(C(F)(F)F)C2)ccc1C(=O)NCC(=O)NCC(F)(F)F (configuration not stated) , tested on FB?
OUTPUT: 1.44

INPUT: Could you share what Euclidean distance was measured for C[C@@]12N[C@@H](Cc3ccccc31)c1ccccc12 [(-)-MK 801 Maleate] , tested on FB?
OUTPUT: 3.8

INPUT: Could you share what Euclidean distance was measured for O=c1ccc2ccc3occc3c2o1 , tested on FB?
OUTPUT: 1.02

INPUT: Could you share what Euclidean distance was measured for COc1ccc2c3c([nH]c2c1)C(C)=NCC3 , tested on FB?
OUTPUT: 1.09

INPUT: Could you share what Euclidean distance was measured for CC[C@@]1(O)C[C@H](O[C@H]2C[C@H](N(C)C)[C@H](O)[C@H](C)O2)c2c(cc3c(c2O)C(=O)c2c(O)cccc2C3=O)[C@H]1C(=O)OC , tested on FB?
OUTPUT: 3.61

INPUT: Could you share what Euclidean distance was measured for NC[C@H](CC(=O)O)c1ccc(Cl)cc1 [(R)-baclofen] , tested on FB?
OUTPUT: 1.01

INPUT: Could you share what Euclidean distance was measured for C[C@@H]1CC[C@@]2(OC1)O[C@H]1C[C@H]3[C@@H]4CC=C5C[C@@H](O[C@@H]6O[C@H](CO)[C@@H](O[C@@H]7O[C@@H](C)[C@H](O)[C@@H](O)[C@H]7O)[C@H](O)[C@H]6O[C@@H]6O[C@@H](C)[C@H](O)[C@@H](O)[C@H]6O)CC[C@]5(C)[C@H]4CC[C@]3(C)[C@H]1[C@@H]2C , tested on FB?
OUTPUT: 1.29

----------
Kindly state Euclidean distance for each of the entries shown.
Test system: HEPG2
METHOD SUMMARY: Euclidean distance of Cell Painting phenotypic profile (signed KS, 77 features) to DMSO centroid (dimensionless distance); higher = stronger phenotypic change vs DMSO (phenoactivity)
TEST PARAMETERS: 48 h; 5 or 10 uM (library dependent)
Structures can show the parent of a compound that is named as a salt.

INPUT: If you can, please state the reported Euclidean distance value of O=P1(N(CCCl)CCCl)NCCCO1 (centres undefined) [Cyclophosphamide Monohydrate] .
OUTPUT: 2.05

INPUT: If you can, please state the reported Euclidean distance value of CO[C@]12C[C@@H](COC(=O)c3cncc(Br)c3)CN(C)[C@@H]1Cc1cn(C)c3cccc2c13 .
OUTPUT: 0.72

INPUT: If you can, please state the reported Euclidean distance value of CCCCCCC(=O)O[C@H]1CC[C@H]2[C@@H]3CCC4=CC(=O)CC[C@]4(C)[C@H]3CC[C@]12C [Testosterone Enanthate] .
OUTPUT: 0.553

INPUT: If you can, please state the reported Euclidean distance value of NCCc1c[nH]c2ccc(O)cc12 [Serotonin HCl] .
OUTPUT: 0.38
